Data credit: patent US8471005B2

molecular target: ALK (Homo sapiens, UniProt Q9UM73); construct: host or cells: baculovirus expression system; experiment: ALK Kinase Assay (ELISA/TRF, PLC-γ substrate); type: biochemical; details: ALK kinase inhibition, 1 μM ATP; read-out: ALK Potency
Sequence (Q9UM73 19-1620): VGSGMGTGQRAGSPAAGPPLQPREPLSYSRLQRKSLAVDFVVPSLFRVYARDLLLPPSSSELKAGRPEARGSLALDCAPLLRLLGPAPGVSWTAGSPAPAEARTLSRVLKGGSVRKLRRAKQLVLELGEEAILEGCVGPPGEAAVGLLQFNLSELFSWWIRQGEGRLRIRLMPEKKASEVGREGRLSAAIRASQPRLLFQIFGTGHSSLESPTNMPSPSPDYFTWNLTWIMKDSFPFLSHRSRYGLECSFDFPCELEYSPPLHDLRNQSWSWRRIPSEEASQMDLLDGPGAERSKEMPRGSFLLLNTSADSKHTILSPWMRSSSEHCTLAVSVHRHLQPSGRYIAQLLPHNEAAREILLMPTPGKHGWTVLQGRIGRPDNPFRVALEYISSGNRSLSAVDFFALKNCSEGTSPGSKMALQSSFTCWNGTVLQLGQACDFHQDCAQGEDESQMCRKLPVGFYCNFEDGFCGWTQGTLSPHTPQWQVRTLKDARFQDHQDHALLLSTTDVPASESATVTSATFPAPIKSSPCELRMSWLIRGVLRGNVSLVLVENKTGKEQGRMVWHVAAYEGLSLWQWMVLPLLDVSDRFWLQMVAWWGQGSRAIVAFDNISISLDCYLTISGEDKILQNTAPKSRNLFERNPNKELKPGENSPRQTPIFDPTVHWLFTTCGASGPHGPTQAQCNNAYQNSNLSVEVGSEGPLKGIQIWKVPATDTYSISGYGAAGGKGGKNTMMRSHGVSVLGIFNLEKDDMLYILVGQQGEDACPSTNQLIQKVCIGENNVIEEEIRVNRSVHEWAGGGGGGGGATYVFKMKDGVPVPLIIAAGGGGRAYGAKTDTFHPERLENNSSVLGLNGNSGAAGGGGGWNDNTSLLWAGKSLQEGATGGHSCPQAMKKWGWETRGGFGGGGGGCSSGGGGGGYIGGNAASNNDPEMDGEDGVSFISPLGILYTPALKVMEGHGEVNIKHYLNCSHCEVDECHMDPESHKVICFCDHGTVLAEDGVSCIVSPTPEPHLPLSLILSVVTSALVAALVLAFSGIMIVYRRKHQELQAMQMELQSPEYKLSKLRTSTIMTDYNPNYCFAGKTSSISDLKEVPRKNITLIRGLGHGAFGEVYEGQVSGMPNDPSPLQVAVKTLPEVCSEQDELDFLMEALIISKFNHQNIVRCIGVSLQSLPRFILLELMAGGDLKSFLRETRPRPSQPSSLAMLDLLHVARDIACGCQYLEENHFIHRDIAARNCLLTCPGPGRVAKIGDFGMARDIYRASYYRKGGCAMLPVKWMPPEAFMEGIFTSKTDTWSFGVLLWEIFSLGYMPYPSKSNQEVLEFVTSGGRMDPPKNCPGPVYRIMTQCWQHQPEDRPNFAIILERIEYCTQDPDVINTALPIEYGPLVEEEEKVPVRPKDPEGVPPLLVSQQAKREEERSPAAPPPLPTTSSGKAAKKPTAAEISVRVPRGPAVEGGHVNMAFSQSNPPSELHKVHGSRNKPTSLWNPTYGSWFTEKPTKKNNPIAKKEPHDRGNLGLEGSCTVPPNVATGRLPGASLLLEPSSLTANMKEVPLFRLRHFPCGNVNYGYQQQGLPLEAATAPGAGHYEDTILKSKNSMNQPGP
quantity: IC50

[
  {
    "compound": "COc1cc(CN2CCN(C)CC2)ccc1Nc1ncc2ccc(-c3ccccc3OC)n2n1 [Example 1252]",
    "quantity": "IC50",
    "result": "< 0.1 µM"
  },
  {
    "compound": "CS(=O)(=O)Nc1cccc(-c2ccc3cnc(Nc4ccc(CN5CCS(=O)(=O)CC5)cc4)nn23)c1 [Example 1052]",
    "quantity": "IC50",
    "result": "0.1 to 1 µM"
  },
  {
    "compound": "COc1ccccc1-c1ccc2cnc(Nc3ccc4c(c3)COCCN4C)nn12 [Example 618]",
    "quantity": "IC50",
    "result": "0.1 to 1 µM"
  },
  {
    "compound": "CN1CCN(c2ccc(Nc3ncc4cc(-c5cccc(CCC#N)c5)cn4n3)cc2)CC1 [Example 1161]",
    "quantity": "IC50",
    "result": "0.1 to 1 µM"
  },
  {
    "compound": "COc1cc(C2CCN(CC(=O)OC(C)(C)C)CC2)ccc1Nc1ncc2ccc(-c3ccccc3OC)n2n1 [Example 1277]",
    "quantity": "IC50",
    "result": "0.1 to 1 µM"
  },
  {
    "compound": "CC(=O)Nc1cccc(Nc2ncc3ccc(-c4cccc(NCCS(C)(=O)=O)c4)n3n2)c1 [Example 893]",
    "quantity": "IC50",
    "result": "1 to 10 µM"
  },
  {
    "compound": "CN1CCOc2ccc(Nc3ncc4ccc(-c5ccccc5N(C)S(C)(=O)=O)n4n3)cc21 [Example 641]",
    "quantity": "IC50",
    "result": "0.1 to 1 µM"
  },
  {
    "compound": "COc1cc(C2CCCN(C)C2)ccc1Nc1ncc2ccc(-c3ccccc3N(C)S(C)(=O)=O)n2n1 (stereo not shown) [Example 806]",
    "quantity": "IC50",
    "result": "< 0.1 µM"
  },
  {
    "compound": "COc1ccccc1-c1ccc2cnc(Nc3cccc(OCC4CCCN4C)c3)nn12 (stereo not shown) [Example 1006]",
    "quantity": "IC50",
    "result": "< 0.1 µM"
  },
  {
    "compound": "COc1ccc(-c2ccc3cnc(Nc4cccc(NCC(N)=O)c4)nn23)cn1 [Example 975]",
    "quantity": "IC50",
    "result": "1 to 10 µM"
  },
  {
    "compound": "CCN1CC=C(c2ccc(Nc3ncc4ccc(-c5ccccc5N(C)S(C)(=O)=O)n4n3)c(OC)c2)CC1 [Example 744]",
    "quantity": "IC50",
    "result": "< 0.1 µM"
  },
  {
    "compound": "CN1CCN(c2ccc(Nc3ncc4ccc(-c5ccccc5OCC(=O)OC(C)(C)C)n4n3)cc2)CC1 [Example 1173]",
    "quantity": "IC50",
    "result": "1 to 10 µM"
  },
  {
    "compound": "Cc1nc2ccc(Nc3ncc4ccc(-c5cccc(S(=O)(=O)NC(C)(C)C)c5)n4n3)cc2n1C [Example 1331]",
    "quantity": "IC50",
    "result": "0.1 to 1 µM"
  },
  {
    "compound": "CC(C)(C)NS(=O)(=O)c1cccc(-c2ccc3cnc(Nc4ccc(CN5CCS(=O)(=O)CC5)cc4)nn23)c1 [Example 1057]",
    "quantity": "IC50",
    "result": "0.1 to 1 µM"
  },
  {
    "compound": "COc1cc(-c2ccc3cnc(Nc4ccc(C5CCN(CC(N)=O)CC5)cc4)nn23)c(OC)nn1 [Example 580]",
    "quantity": "IC50",
    "result": "0.1 to 1 µM"
  },
  {
    "compound": "CCS(=O)(=O)c1cccc(-c2ccc3cnc(Nc4ccc5nc(C(F)(F)F)[nH]c5c4)nn23)c1 [Example 1313]",
    "quantity": "IC50",
    "result": "> 10 µM"
  },
  {
    "compound": "COc1ccccc1-c1ccc2cnc(Nc3ccc(C4CCN(C)CC4)cc3)nn12 [Example 1132]",
    "quantity": "IC50",
    "result": "< 0.1 µM"
  },
  {
    "compound": "CC(=O)N1CCCC(C)(C)c2ccc(Nc3ncc4ccc(-c5cccc(NS(C)(=O)=O)c5)n4n3)cc21 [Example 1365]",
    "quantity": "IC50",
    "result": "1 to 10 µM"
  },
  {
    "compound": "COc1ccccc1-c1ccc2cnc(Nc3ccc4c(c3)CCN(CC(N)=O)C4)nn12 [Example 917]",
    "quantity": "IC50",
    "result": "0.1 to 1 µM"
  },
  {
    "compound": "CN1CCN(c2ccc(Nc3ncc4cc(-c5ccncc5)cn4n3)cc2)CC1 [Example 1158]",
    "quantity": "IC50",
    "result": "> 10 µM"
  },
  {
    "compound": "CCN(CC)C1CCN(c2ccc(Nc3ncc4ccc(-c5cnn(C)c5)n4n3)cc2)CC1 [Example 1207]",
    "quantity": "IC50",
    "result": "0.1 to 1 µM"
  },
  {
    "compound": "O=S(=O)(c1cccc(-c2ccc3cnc(Nc4ccc(-c5cccnc5)cc4)nn23)c1)N1CCCC1 [Example 1086]",
    "quantity": "IC50",
    "result": "> 10 µM"
  },
  {
    "compound": "COc1cc(Cl)ccc1-c1ccc2cnc(Nc3ccc(N4CCC(C(=O)N5CCN(C)CC5)CC4)cc3)nn12 [Example 484]",
    "quantity": "IC50",
    "result": "< 0.1 µM"
  },
  {
    "compound": "CN(c1ccccc1-c1ccc2cnc(Nc3ccc4c(cnn4C)c3)nn12)S(C)(=O)=O [Example 1339]",
    "quantity": "IC50",
    "result": "0.1 to 1 µM"
  },
  {
    "compound": "COc1cc(C2CCN(CC(N)=O)CC2)ccc1Nc1ncc2ccc(-c3ccncc3OC)n2n1 [Example 857]",
    "quantity": "IC50",
    "result": "< 0.1 µM"
  },
  {
    "compound": "COc1cc(C2CCN(CC(=O)N(C)C)CC2)ccc1Nc1ncc2ccc(-c3ccccc3OC)n2n1 [Example 811]",
    "quantity": "IC50",
    "result": "< 0.1 µM"
  },
  {
    "compound": "COc1ccccc1-c1ccc2cnc(Nc3ccc(C4CCN(C)CC4)c(OC)c3)nn12 [Example 908]",
    "quantity": "IC50",
    "result": "< 0.1 µM"
  },
  {
    "compound": "COc1cc(CN2CCN(C[C@H](C)O)CC2)ccc1Nc1ncc2ccc(-c3ccccc3OC)n2n1 [Example 1226]",
    "quantity": "IC50",
    "result": "< 0.1 µM"
  },
  {
    "compound": "COc1cc(N2CCN(C[C@@H](O)CO)CC2)ccc1Nc1ncc2ccc(-c3ccccc3OC)n2n1 [Example 758]",
    "quantity": "IC50",
    "result": "< 0.1 µM"
  },
  {
    "compound": "COc1cccc(-c2ccn3nc(Nc4ccc(N5CCN(C)CC5)cc4)ncc23)c1 [Example 725]",
    "quantity": "IC50",
    "result": "> 10 µM"
  },
  {
    "compound": "CN(Cc1cccc(-c2ccc3cnc(Nc4ccc5c(c4)NC(=O)C5(C)C)nn23)c1)S(C)(=O)=O [Example 1054]",
    "quantity": "IC50",
    "result": "> 10 µM"
  }
]
